assay procedure: Half life in mouse liver microsomes
Format: ADME, Microsome
// label = true (1) if half-life is not less than 10 min, otherwise false (0)

{"columns": ["compound", "label value"],
 "data": [
  ["OC(Cn1cnc2ccccc21)c1cc(C(F)(F)F)nc2c(C(F)(F)F)cccc12 (centres undefined)", "false (0)"],
  ["CCCc1nccn1CC(O)c1cc(C(F)(F)F)nc2c(C(F)(F)F)cccc12 (centres undefined)", "false (0)"],
  ["CC(C)CNCC(O)c1cc(C(F)(F)F)nc2c(C(F)(F)F)cccc12 (centres undefined)", "true (1)"],
  ["OC(c1cc(C(F)(F)F)nc2c(C(F)(F)F)cccc12)C1CCCCN1 (centres undefined)", "true (1)"],
  ["CC(C)NCC(O)c1cc(C(F)(F)F)nc2c(C(F)(F)F)cccc12 (centres undefined)", "true (1)"],
  ["CNCC(O)c1cc(C(F)(F)F)nc2c(C(F)(F)F)cccc12 (centres undefined)", "true (1)"],
  ["CCc1nc(C)cn1CC(O)c1cc(C(F)(F)F)nc2c(C(F)(F)F)cccc12 (centres undefined)", "true (1)"]
]}

Now look at this one.
Q: Reported half-life reaches at least 10 min for Cc1nc2ccccc2n1CC(O)c1cc(C(F)(F)F)nc2c(C(F)(F)F)cccc12 (centres undefined) ?
Ans: false (0)

* * *

assay procedure: Cytotoxicity against mouse RAW264.7 cells
Format: cell-based
measurement parameters: read-out: LC50 (the source's name)
metric name: log10(CC50) (log10 of the value in µg/mL)
# log10 transformed; quantity=CC50; unit=µg/mL

Some solved entries appear below for comparison.
{"columns": ["compound", "result number"],
 "data": [
  ["CCN(CC)CC(O)c1cc(C(F)(F)F)nc2c(C(F)(F)F)cccc12 (centres undefined)", 0.32],
  ["CC(C)CNCC(O)c1cc(C(F)(F)F)nc2c(C(F)(F)F)cccc12 (centres undefined)", 1.43],
  ["CSCCCNCC(O)c1cc(C(F)(F)F)nc2c(C(F)(F)F)cccc12 (centres undefined)", 0.94],
  ["CC(C)NCC(O)c1cc(C(F)(F)F)nc2c(C(F)(F)F)cccc12 (centres undefined)", 0.72],
  ["CCCCNCC(O)c1cc(C(F)(F)F)nc2c(C(F)(F)F)cccc12 (centres undefined)", 0.47],
  ["CCCCN(CCCC)CC(O)c1cc(C(F)(F)F)nc2c(C(F)(F)F)cccc12 (centres undefined)", 1.30]
]}

Report log10(CC50) for each item below.
1. OC(CNc1ccccc1)c1cc(C(F)(F)F)nc2c(C(F)(F)F)cccc12 (centres undefined)
2. OC(CNCCc1ccccc1)c1cc(C(F)(F)F)nc2c(C(F)(F)F)cccc12 (centres undefined)
3. CCCN(CCC)CC(O)c1cc(C(F)(F)F)nc2c(C(F)(F)F)cccc12 (centres undefined)
4. OC(CNCCNCc1ccccc1)c1cc(C(F)(F)F)nc2c(C(F)(F)F)cccc12 (centres undefined)
5. CCc1nc(C)cn1CC(O)c1cc(C(F)(F)F)nc2c(C(F)(F)F)cccc12 (centres undefined)

Ans:
1. 1.35
2. 0.98
3. 1.52
4. 0.92
5. 1.41

* * *

assay procedure: Apparent permeability from apical to basolateral side of MDCK cell monolayer expressing MDR1
Format: ADME, cell-based, Canis lupus familiaris
measurement parameters: dog
What Papp A→B was measured for each of the following?
Answers are plain numbers, in ×10⁻⁶ cm/s.

Some solved entries appear below for comparison.
{"columns": ["compound", "measure unit", "Papp A→B"],
 "data": [
  ["CCCCNCC(O)c1cc(C(F)(F)F)nc2c(C(F)(F)F)cccc12 (stereo unspecified)", "×10⁻⁶ cm/s", 25],
  ["CNCC(O)c1cc(C(F)(F)F)nc2c(C(F)(F)F)cccc12 (stereo unspecified)", "×10⁻⁶ cm/s", 24],
  ["COCCNCC(O)c1cc(C(F)(F)F)nc2c(C(F)(F)F)cccc12 (stereo unspecified)", "×10⁻⁶ cm/s", 32],
  ["CSCCCNCC(O)c1cc(C(F)(F)F)nc2c(C(F)(F)F)cccc12 (stereo unspecified)", "×10⁻⁶ cm/s", 38],
  ["OC(CNCCNCc1ccccc1)c1cc(C(F)(F)F)nc2c(C(F)(F)F)cccc12 (stereo unspecified)", "×10⁻⁶ cm/s", 8.4]
]}

Consider the additional compound presented here.
Q: Could you tell me which Papp A→B is on file for OC(c1cc(C(F)(F)F)nc2c(C(F)(F)F)cccc12)C1CCCCN1 (racemic) ?
Ans: 9.4

* * *

System: Plasmodium falciparum
assay procedure: Antimalarial activity against chloroquine-resistant and mefloquine-sensitive Plasmodium falciparum W2
Type: functional, organism-based
metric name: IC90 (µg/mL)
Give bare numbers, in µg/mL.

{"columns": ["compound", "metric name", "measure unit", "result number"],
 "data": [
  ["OC(CNCCc1ccccc1)c1cc(C(F)(F)F)nc2c(C(F)(F)F)cccc12 (centres undefined)", "IC90", "µg/mL", 0.023],
  ["CCCc1nccn1CC(O)c1cc(C(F)(F)F)nc2c(C(F)(F)F)cccc12 (centres undefined)", "IC90", "µg/mL", 0.32],
  ["CCCN(CCC)CC(O)c1cc(C(F)(F)F)nc2c(C(F)(F)F)cccc12 (centres undefined)", "IC90", "µg/mL", 0.02]
]}

Q: # get_value(readout= IC90, system= Plasmodium falciparum) for CC(C)CNCC(O)c1cc(C(F)(F)F)nc2c(C(F)(F)F)cccc12 (centres undefined)
Ans: 0.013

* * *

assay procedure: Cytotoxicity against mouse RAW264.7 cells
Type: cell-based
measurement parameters: read-out: LC50 (the source's name)
metric name: CC50 (µg/mL)
Give bare numbers, in µg/mL.

Report CC50 for each item below.
1. CC(C)c1nccn1CC(O)c1cc(C(F)(F)F)nc2c(C(F)(F)F)cccc12 (stereo not drawn)
2. COCCNCC(O)c1cc(C(F)(F)F)nc2c(C(F)(F)F)cccc12 (stereo not drawn)
3. OC(CNCc1ccccc1)c1cc(C(F)(F)F)nc2c(C(F)(F)F)cccc12 (stereo not drawn)

Ans:
50.1
38.2
20.4

# credit: ChEMBL document CHEMBL1156893
